- TARGET_OF_ASSAY: human APJ receptor (Homo sapiens)
- Sequence (P35414 whole entry): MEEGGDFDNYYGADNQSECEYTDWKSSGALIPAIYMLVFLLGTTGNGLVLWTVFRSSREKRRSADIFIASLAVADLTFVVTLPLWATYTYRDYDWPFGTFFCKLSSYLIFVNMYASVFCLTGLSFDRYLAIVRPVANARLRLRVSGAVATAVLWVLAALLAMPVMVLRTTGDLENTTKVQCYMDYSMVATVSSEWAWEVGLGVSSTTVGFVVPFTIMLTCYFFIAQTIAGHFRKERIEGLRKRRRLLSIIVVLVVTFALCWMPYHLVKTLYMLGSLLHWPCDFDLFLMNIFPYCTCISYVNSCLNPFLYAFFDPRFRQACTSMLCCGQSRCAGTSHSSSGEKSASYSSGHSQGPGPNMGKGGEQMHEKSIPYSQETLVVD
- EXPERIMENTAL_DETAILS: Intracellular cAMP accumulation assay (APJ hcAMP, HTRF)
- TEST_CONTEXT: HEK293 cells stably expressing human APJ receptor; inhibition of forskolin-mediated cAMP production; read-out: Human APJ cAMP EC50 Potency range
pEC50: −log10 of the molar value.
PARAMETER: pEC50

pEC50 reading for CCCCc1[nH]c(=O)c(S(=O)(=O)c2ccc(C3CC3)cn2)c(O)c1-c1c(OC)cccc1OC [Example 51] : 8.00 to 11.00

pEC50 reading for CCCCc1[nH]c(=O)c(S(=O)(=O)c2ccc(Br)cn2)c(O)c1-c1c(OC)cccc1OC [Example 32] : 8.00 to 11.00

pEC50 reading for CCCCc1[nH]c(=O)c(S(=O)(=O)c2cccc[n+]2[O-])c(O)c1-c1c(OC)cccc1OC [Example 18] : 6.52 to 7.00
